System: OVCAR-8 ovarian
Assay: NCI-60 one-dose screen, 48 h
Conditions: 10 µM unless noted
About 83,000 compounds went through this panel and 20% of them were active in at least one assay; those are over-represented in the sample as a whole. Calls of active or inactive are those of the source. How the source made its calls: active means growth percent below 10; inactive means the rest.
Outcome field: choose from TRUE for active, FALSE for inactive

Before answering, review these 5 worked examples.
CCN(CC)CCNc1ccc([N+](=O)[O-])c2sc3cc(Cl)ccc3c(=O)c12 = TRUE
COc1ccccc1S(=O)(=O)Nc1ccc2c3c(cc(-c4cnn(C)c4)nc13)C(=O)N2C = FALSE
COc1ccc(C(=O)NC(=O)Nc2ccc3c(c2)NC(=O)/C3=C\c2[nH]c(C)c(C(=O)O)c2C)c(F)c1 = FALSE
COc1ccc(-c2[nH]c3ccccc3c2/C=C(\C#N)S(=O)(=O)c2ccccc2)cc1 = FALSE
C/C(=N\N=C1/SCC(=O)N1c1ccccc1)c1ccco1 = FALSE

# fetch the recorded call for NS(=O)(=O)c1ccc(CCN2C(=O)/C(=C\c3ccc(Cl)cc3)C=C2c2ccc(Oc3ccccc3)cc2)cc1 here
FALSE

# fetch the recorded call for NS(=O)(=O)c1ccc(Nc2nc(O)c(/C=C3\C=Nc4ccccc43)s2)cc1 here
FALSE

# fetch the recorded call for Cc1cc[n+](CCCC[n+]2ccc(C)cc2)cc1 here
FALSE

# fetch the recorded call for Nc1nc(=S)ss1 here
FALSE

# fetch the recorded call for CC1OC(n2c3ccccc3c3c4c(c5c6ccccc6[nH]c5c32)C(=O)N(CCN[C@@H]2CCC[C@H]2N)C4=O)CC(O)C1O (stereo not given in full) here
FALSE

* * *

Test system: NCI-H460 lung
Test: NCI-60 one-dose screen, 48 h (100 = growth as untreated, 0 = no growth, -100 = all killed)
Settings: 10 µM unless noted
The panel holds about 83,000 compounds, 20% with a hit somewhere; the sample as a whole holds those more often.
# label = true if growth < 40% else false

Before answering, review these 4 worked examples.
O=C(Nc1ccc(F)cc1)Nc1ccc(Br)c(C(F)(F)F)c1 = true
c1ccc2c(c1)Oc1cccnc1-n1nccc1-2 = false
O=c1c(-c2ccc3c(c2)OCO3)coc2c(CO)c(O)ccc12 = true
O=C(NCCNc1nccc(-c2c(-c3cccc(O)c3)nc3sccn23)n1)c1ccccc1 = false

A record lists CCN(CC)CCNc1ccc([N+](=O)[O-])c2sc3cc(Cl)ccc3c(=O)c12 . Is its growth below 40%?
true

A record lists CNC(=O)NN . Is its growth below 40%?
false

* * *

Test system: TK-10 renal
Assay: NCI-60 one-dose screen, 48 h
Settings: 10 µM unless noted
The panel holds about 83,000 compounds, 20% with a hit somewhere; the sample as a whole holds those more often. The source made the active and inactive calls. The calls were made as follows: active = growth percent below 10; inactive = the rest.
Outcome field: choose from active, inactive

Before answering, review these 5 worked examples.
CC1=C[S+](c2ccccc2)c2cccc3cc4ccccc4c1c23 (configuration not stated) = active
C#C[C@H](O)/C=C/CCCCCCC#C[C@H](O)CC[C@@H](O)C#CCCCCCC/C=C/[C@@H](O)C#C = inactive
Cn1c2ccccc2c2ssc(=S)c21 = inactive
Cc1cc2c(cc1C)N(C(=O)CCl)CCN2C(=O)CCl = active
COc1ccc(-c2c(C#N)cnc(N)c2-c2nc3cc(C)c(C)cc3[nH]2)cc1 = inactive

# input for lookup
# fetch the recorded call for COc1ccc(/C=C/C(=O)c2ccc(NC(=O)CSc3nnc(-c4cc(OC)c(OC)c(OC)c4)o3)cc2)cc1 here
inactive
